- Measured Target: UniProtKB Q72547
- Test Name: Inhibitory activity against reverse transcriptase of HIV-1
pKi: −log10 of the molar value.

{"columns": ["Chem Smiles", "pKi"],
 "data": [
  ["Oc1cnc2c(O)ccc(O)c2c1O", 6.31]
]}

# credit: ChEMBL document CHEMBL1132397
